Known normalized RNA/DNA level without ligand (log10) of a selection of variants
B1: library; a variant is named by its letters at N, in order (parent)
chain: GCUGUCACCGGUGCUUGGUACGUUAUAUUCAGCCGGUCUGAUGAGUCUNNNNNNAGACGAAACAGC

Variants of: B1
Assay: normalized RNA/DNA level without ligand (relative to sTRSVctl = 100) (log10 (% of sTRSVctl)); HEK293T overexpressing SLC46A1; higher = less ribozyme self-cleavage, higher mRNA level
Conditions: without (6R,S)-folinic acid; ligand present: no
Attribute measured: normalized RNA/DNA level without ligand (log10)

> print(dat)
       mut  recorded.measurement
 1  UAACGU                  1.95
 2  GUAAUA                     2
 3  GAUCAA                     2
 4  GCAACC                  2.03
 5  GCACCG                  2.06
 6  GUGUAC                  1.94
 7  UUUAAU                  1.97
 8  GGGGCC                  2.05
 9  AAUCAC                  2.01
10  ACACCC                  2.04
11  UGCCCC                  2.03
12  AAUCUG                  1.96
13  GGCCGA                  2.08
14  AUCCCA                  2.02
15  CGGACA                  2.04
16  CUCCAC                  2.02
17  GGUUCG                  2.05
18  CUGGUC                  2.06
19  CUCAUA                  1.99
20  CCUAGG                  2.05
21  AUAAGG                  1.88
22  AGCGAG                  1.89
23  CACAUG                  2.02
24  AAGUAC                  2.02
25  AUUGGG                  1.77
26  CCAAAC                  2.02
27  GUGAUC                  2.03
28  GAUUCC                  2.06
29  UAAGAC                  1.98
30  GGUGAU                  2.02
31  AUACAA                  1.97
32  AGAUUU                  2.06
33  CCGCCA                  2.07
34  GAUACU                     2
35  ACGCUA                  2.01
36  UUGUGA                  1.96
37  UCUUGA                  1.99
38  CUCGUC                  2.15
39  AGCGGG                     2
40  UCGUGU                     2
41  CGUUUU                  2.03
42  UGACCC                  2.04
43  UAAAUC                  2.06
44  UGCAGA                   1.9
45  GUUCAC                  2.04
46  CGCAAA                  1.97
47  GCCGCU                  2.05
48  CAUAAU                  1.95
49  AAUGUC                  2.07
50  UCACAG                   1.9
51  CGUGUU                     2
52  AAAGGC                  2.04
53  UAUGAG                  1.61
54  AGUGAA                  1.93
55  GAGGUC                  2.04
56  CUCUCA                  2.05
57  UGGGUG                  1.69
58  AGCAUC                  2.08
59  AUCUCU                  2.02
60  UGGAGU                  1.89
61  AGCCGG                  2.07
62  CAUUGA                  2.02
63  GAGCGU                  1.98
64  CACCUA                  2.02
65  GUAGGA                  1.95
66  AUGGCA                  1.99
67  ACACAG                  1.95
68  GGACUA                  1.99
69  GCAUCA                  2.02
70  UAGCCC                  2.05
71  GCCCAG                     2
72  GAGCAA                  1.96
73  GACUGU                  1.98
74  CUGCCA                  2.05
75  CUACAA                  1.98
76  CCCCGG                  2.08
77  GCGAUU                  2.03
78  UACAGG                  1.66
79  UCCACC                  2.02
80  GGACCU                  2.06
81  UUCGCG                  1.91
82  CUAACU                  2.01
83  CCGCAA                  1.99
84  AAAGCG                  1.74
85  CGCAAU                  1.94
86  AGGUUA                  1.98
87  AGCACA                  2.02
88  UAACAC                  2.01
89  ACAUCA                  2.06
90  CCUUCC                  2.07
91  UUCUGU                  2.03
